Target: MOR (Homo sapiens)
Construct: host or cells: CHO (CHO-hMOR)
Sequence (P35372 whole entry): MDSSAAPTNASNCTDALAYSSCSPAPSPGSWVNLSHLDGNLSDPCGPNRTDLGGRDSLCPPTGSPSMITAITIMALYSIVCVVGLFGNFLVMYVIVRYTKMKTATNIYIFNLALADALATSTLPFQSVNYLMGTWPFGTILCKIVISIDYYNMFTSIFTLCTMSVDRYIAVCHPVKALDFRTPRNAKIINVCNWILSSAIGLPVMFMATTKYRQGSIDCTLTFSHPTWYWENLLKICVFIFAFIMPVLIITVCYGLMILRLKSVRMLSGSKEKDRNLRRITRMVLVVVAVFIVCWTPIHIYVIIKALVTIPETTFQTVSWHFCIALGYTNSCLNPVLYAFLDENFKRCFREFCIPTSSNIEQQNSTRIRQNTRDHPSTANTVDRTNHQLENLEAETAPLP
Assay: competition radioligand binding, CHO cell membranes expressing human MOR, [3H]DAMGO
pKi: −log10 of the molar value.
measured property: pKi

INSERT INTO results (molecule, experimental_result) VALUES
  ('CO[C@@]12CC[C@@H](N[C@@H](Cc3ccccc3)C(=O)O)[C@@H]3Oc4c(O)ccc5c4[C@@]31CCN(C)[C@@H]2C5', 8.38),
  ('CO[C@@]12CC[C@@H](N[C@@H](CCC(=O)O)C(=O)O)[C@@H]3Oc4c(O)ccc5c4[C@@]31CCN(C)[C@@H]2C5.Cl.Cl [Compound 14b]', 7.54),
  ('CC[C@H](N[C@@H]1CC[C@@]2(OC)[C@H]3Cc4ccc(O)c5c4[C@@]2(CCN3C)[C@H]1O5)C(=O)O [Compound 19b]', 8.68),
  ('CO[C@@]12CC[C@H](N[C@H](Cc3ccccc3)C(=O)O)[C@@H]3Oc4c(O)ccc5c4[C@@]31CCN(C)[C@@H]2C5 [Compound 17a]', 9.07),
  ('CO[C@@]12CC[C@@H](N[C@H](Cc3ccccc3)C(=O)O)[C@@H]3Oc4c(O)ccc5c4[C@@]31CCN(C)[C@@H]2C5 [Compound 17b]', 8.74),
  ('CO[C@@]12CC[C@H](NCC(=O)O)[C@@H]3Oc4c(O)ccc5c4[C@@]31CCN(C)[C@@H]2C5', 9.10);

Where these numbers come from: paper PMC6348443
